Values compiled from ChEMBL document CHEMBL1146891.

# PROTOCOL_SUMMARY: Half life in dog at 0.5 mg/kg, iv and 0.2 mg/kg, po
# Type: ADME, organism-based, Canis lupus familiaris
# EXPERIMENTAL_SETUP: in vivo
REPORTED_PROPERTY: half-life (h)

// below: answered compounds
{"LINE_NOTATION": "Nc1noc2ccc(-n3nc(C(F)(F)F)c4c3C(=O)N(c3ccc(-c5ccccc5CN5CC[C@@H](O)C5)cc3)CN4)cc12.O=C(O)C(F)(F)F", "half-life [h]": 4.3}
{"LINE_NOTATION": "Cc1nn(-c2ccc3onc(N)c3c2)c2c(=O)n(-c3ccc(-c4ccccc4CN(C)C)cc3)c(C)nc12.O=C(O)C(F)(F)F", "half-life [h]": 4.2}
{"LINE_NOTATION": "Cc1nn(-c2ccc3onc(N)c3c2)c2c(=O)n(-c3ccc(-c4ccccc4CN(C)C)cc3)cnc12.O=C(O)C(F)(F)F", "half-life [h]": 2.5}
{"LINE_NOTATION": "Cc1nc2c(C(F)(F)F)nn(-c3ccc4onc(N)c4c3)c2c(=O)n1-c1ccc(-c2ccccc2CN(C)C)cc1.O=C(O)C(F)(F)F", "half-life [h]": 14}

(I) Cc1nn(-c2ccc3onc(N)c3c2)c2c(=O)n(-c3ccc(-c4ccccc4CN4CC[C@@H](O)C4)cc3)c(C)nc12.O=C(O)C(F)(F)F
(II) Cc1nc2c(C(F)(F)F)nn(-c3ccc4onc(N)c4c3)c2c(=O)n1-c1ccc(-c2ccccc2CN2CC[C@@H](O)C2)cc1.O=C(O)C(F)(F)F
Prompt line: Compare I and II by numeric half-life and name the larger one. // output: label of the selected item
Response line: II
(II: 8.4 h, I: 3.8 h)

----------
# PROTOCOL_SUMMARY: Apparent permeability in Caco-2 cells
# Format: ADME, cell-based
# EXPERIMENTAL_SETUP: human
REPORTED_PROPERTY: Papp (×10⁻⁶ cm/s)

Examples from the recorded data:
{"LINE_NOTATION": "Cc1nn(-c2ccc3onc(N)c3c2)c2c(=O)n(-c3ccc(-c4ccccc4CN(C)C)cc3)c(C)nc12.O=C(O)C(F)(F)F", "REPORTED_PROPERTY": "Papp", "MEASURED_VALUE": 6.1}
{"LINE_NOTATION": "Cc1nn(-c2ccc3onc(N)c3c2)c2c(=O)n(-c3ccc(-c4ccccc4CN4CC[C@@H](O)C4)cc3)c(C)nc12.O=C(O)C(F)(F)F", "REPORTED_PROPERTY": "Papp", "MEASURED_VALUE": 4.7}

(A) Nc1noc2ccc(-n3nc(C(F)(F)F)c4c3C(=O)N(c3ccc(-c5ccccc5CN5CC[C@@H](O)C5)cc3)CN4)cc12.O=C(O)C(F)(F)F
(B) Cc1nn(-c2ccc3onc(N)c3c2)c2c(=O)n(-c3ccc(-c4ccccc4CN(C)C)cc3)cnc12.O=C(O)C(F)(F)F
(C) Cc1nc2c(C(F)(F)F)nn(-c3ccc4onc(N)c4c3)c2c(=O)n1-c1ccc(-c2ccccc2CN(C)C)cc1.O=C(O)C(F)(F)F
Prompt line: Put the compounds in ascending order of Papp. To answer, write out the labels according to the requested order.
Response line: A, B, C
(A: 3.9 ×10⁻⁶ cm/s, B: 11 ×10⁻⁶ cm/s, C: 19 ×10⁻⁶ cm/s)
